This collection of values is drawn from patent US20240217966A1.

# Measured target: Human GLP-1 receptor (Homo sapiens)
# Construct: expressed in transfected cells
# Method description: Measurement of GLP-1 receptor agonist activity (cAMP assay)
# Format: cell-based
# Test settings: cAMP increase in GLP-1 R/CHO-K1 cells; 2 nM human GLP-1 (7-36) = 100%, DMSO only = 0%
Value kind: EC50 (nM)
Kindly provide the numeric value in nM only, without the unit symbol.

# annotated cases, reported EC50 shown
1) C[C@H]1c2nc(OCc3ccc(C4CC4)cc3)c(C(F)(F)F)cc2CCN1Cc1nc2c(F)cc(C(=O)O)cc2n1C[C@@H]1CCO1 [Compound I-366] : 0.421
2) COc1cc(Cl)ccc1COc1nc2c(cc1C(F)(F)F)CCN(Cc1nc3ccc(C(=O)O)cc3n1C[C@@H]1CCO1)[C@H]2C [Compound I-252] : 0.0798
3) COc1cc(C(=O)O)cc2c1nc(CN1CCc3cc(C(F)(F)F)c(OCc4c(F)cc(F)cc4F)cc3[C@@H]1C)n2C[C@@H]1CCO1 [Compound I-238] : 0.36

Fill in: EC50 of C[C@H]1c2cc(OCc3ccc(Cl)cc3)c(Cl)cc2CCN1Cc1nc2c(F)cc(C(=O)O)cc2n1C[C@@H]1CCO1 [Compound I-332] is ___
1.38

Subsequent entry: COc1cc(C(=O)O)cc2c1nc(CN1CCc3cc(C(F)(F)F)c(OCc4ccc(Cl)cn4)nc3[C@@H]1C)n2C[C@@H]1CCO1 [Compound I-392]
0.0156

Another compound to look at: COc1cc(C(=O)O)cc2c1nc(CN1CCc3cc(C(F)(F)F)c(OCc4ccc(Cl)cc4Cl)nc3C1)n2C[C@@H]1CCO1 [Compound I-389]
0.05

###

# Measured target: Human GLP-1 receptor (Homo sapiens)
# Construct: expressed in transfected cells
# Method description: Measurement of GLP-1 receptor agonist activity (cAMP assay)
# Assay type: cell-based
# Test settings: CHO-K1, hGLP-1R/CHO-K1 cells, cAMP; 100% = human GLP-1 (7-36) at 2 nM, 0% = DMSO only; read-out: Emax(%)
Below, each entry is listed with its recorded Emax.
Reply with just the number (in %).

Fill in the blank: the reported Emax of O=C(O)c1ccc2nc(CN3CCc4cc(C(F)(F)F)c(OCc5c(F)cc(OC(F)F)cc5F)cc4C3)n(C[C@@H]3CCO3)c2c1 is ____.
103

Subsequent entry: Cn1nncc1Cn1c(CN2CCc3cc(C(F)(F)F)c(OCc4ccc(Cl)cc4F)cc3C2)nc2ccc(C(=O)O)cc21
67.7

Same question for CCn1cncc1Cn1c(CN2CCc3cc(C(F)(F)F)c(OCc4ccc(Cl)cc4F)cc3C2)nc2ccc(C(=O)O)cc21 please.
95

And for O=C(O)c1ccc2nc(CN3CCc4cc(C(F)(F)F)c(OCc5c(F)cccc5F)cc4C3)n(C[C@@H]3CCO3)c2c1 ?
93.7

###

# Measured target: Human GLP-1 receptor (Homo sapiens, UniProt P43220)
# Construct: expressed in transfected cells
# Sequence (P43220 24-463): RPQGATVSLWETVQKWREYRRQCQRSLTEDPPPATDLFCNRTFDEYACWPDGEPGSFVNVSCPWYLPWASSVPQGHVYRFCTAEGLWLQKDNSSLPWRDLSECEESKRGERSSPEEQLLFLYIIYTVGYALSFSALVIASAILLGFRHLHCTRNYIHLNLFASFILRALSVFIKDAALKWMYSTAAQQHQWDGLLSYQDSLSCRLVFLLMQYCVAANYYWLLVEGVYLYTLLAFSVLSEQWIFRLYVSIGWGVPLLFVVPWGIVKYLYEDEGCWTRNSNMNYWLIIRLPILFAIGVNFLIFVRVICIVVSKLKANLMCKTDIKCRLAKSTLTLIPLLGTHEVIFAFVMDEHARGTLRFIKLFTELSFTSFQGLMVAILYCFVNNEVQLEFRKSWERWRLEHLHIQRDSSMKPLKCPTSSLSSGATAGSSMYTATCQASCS
# Method description: Measurement of GLP-1 receptor agonist activity (cAMP assay)
# Assay type: cell-based
# Test settings: CHO-K1, hGLP-1R/CHO-K1 cells, cAMP; 100% = human GLP-1 (7-36) at 2 nM, 0% = DMSO only; read-out: Emax(%)
Value kind: Emax
Record the result as a number with its unit.

Worked cases, answers included:
1. O=C(O)c1ccc2nc(CN3CCc4cc(C(F)(F)F)c(OCc5ccc(Cl)cc5F)cc4C3)n(CCOC(F)F)c2c1 : 128%
2. O=C(O)c1ccc2nc(CN3CCc4cc(Cl)c(OCc5ccc(Cl)cc5F)cc4C3)n(C[C@@H]3CCO3)c2c1 : 92.3%
3. Cc1ccc(COc2cc3c(cc2C(F)(F)F)CCN(Cc2nc4ccc(C(=O)O)nc4n2C[C@@H]2CCO2)[C@H]3C)cc1 : 99%

I am curious: what Emax value has been reported for O=C(O)c1ccc2nc(CN3CCc4cc(C(F)(F)F)c(OCc5ccc(Cl)cc5F)cc4C3)n(Cc3ncco3)c2c1 ?
92%

Next entry: O=C(O)c1ccc2nc(CN3CCc4cc(C(F)(F)F)c(OCc5ccc(Cl)cc5F)cc4C3)n(C[C@H]3CCO3)c2c1
95%

Field entry: O=C(O)c1ccc2nc(CN3CCc4cc(C(F)(F)F)c(OCc5ccccc5F)cc4C3)n(C[C@@H]3CCO3)c2c1
97.7%

How about this compound: O=C(O)c1ccc2nc(CN3CCc4cc(C(F)(F)F)c(OCc5ccn(CC(F)(F)F)n5)cc4C3)n(C[C@@H]3CCO3)c2c1
93.7%

Moving on to C[C@H]1c2nc(OCc3ccc(Cl)cc3)c(C(F)(F)F)cc2CCN1Cc1nc2ccc(C(=O)O)c(F)c2n1C[C@@H]1CCO1
103%

###

Catalogue of compounds with associated pEC50
# Measured target: Human GLP-1 receptor (Homo sapiens)
# Construct: expressed in transfected cells
# Method description: Measurement of GLP-1 receptor agonist activity (cAMP assay)
# Format: cell-based
# Test settings: cAMP increase in GLP-1 R/CHO-K1 cells; 2 nM human GLP-1 (7-36) = 100%, DMSO only = 0%
# Procedure: Test Example 1: (Measurement of GLP-1 Receptor Agonist Activity) Human GLP-1 receptor stably expressing cells (hGLP-1R/CHO-K1 cells) are cultured in an α-MEM medium (Sigma) containing 10% FBS (Hyclone), 2% GlutaMAX (Gibco), 1% G418 (Nacalai Tesque), and 1% Penicillin-Streptomycin Mixed Solution (Sigma) at 37° C. under 5% CO2 conditions, and recovered by treating a 10 fold diluted 5.0 g/l-trypsin/5.3 mmol/l-EDTA solution (Nacalai Tesque) and cryopreserved. […]
pEC50 (log units): -log10 of the concentration in mol/L.

1. C[C@H]1c2cc(OCc3c(F)cc(Cl)cc3F)c(Cl)cc2CCN1Cc1nc2ccc(C(=O)O)cc2n1C[C@@H]1CCO1 [Compound I-312] : 8.69

Form: Entry = C[C@H]1c2nc(OCc3ccc(Cl)cc3)c(C(F)(F)F)cc2CCN1Cc1nc2c(F)cc(C(=O)O)cc2n1C[C@@H]1CCO1 [Compound I-239] | System = Human GLP-1 receptor (Homo sapiens) | pEC50 = ____
10.05

Moving on to O=C(O)c1ccc2nc(CN3CCc4cc(C(F)(F)F)c(OCc5ccc(OC(F)F)cc5F)nc4C3)n(C[C@@H]3CCO3)c2c1 [Compound I-270]
9.16

Now the same for COc1cc(C(=O)O)cc2c1nc(CN1CCc3cc(C(F)(F)F)c(OCc4ccc(F)cc4F)nc3[C@@H]1C)n2C[C@@H]1CCO1 [Compound I-282]
11.04

Now consider COc1cc(C(=O)O)cc2c1nc(CN1CCc3cc(C(F)(F)F)c(OCc4ccc(Cl)cn4)cc3[C@@H]1C)n2C[C@@H]1CCO1 [Compound I-225] .
9.46

Moving on to the next compound: COc1cc(C(=O)O)cc2c1nc(CN1CCc3cc(C(F)(F)F)c(OCc4ccc(C)cc4)nc3C1)n2C[C@@H]1CCO1 [Compound I-387]
9.75

###

This listing pairs compounds with measured Emax.
# Measured target: Human GLP-1 receptor (Homo sapiens, UniProt P43220)
# Construct: expressed in transfected cells
# Method description: Measurement of GLP-1 receptor agonist activity (cAMP assay)
# Type: cell-based
# Test settings: CHO-K1, hGLP-1R/CHO-K1 cells, cAMP; 100% = human GLP-1 (7-36) at 2 nM, 0% = DMSO only; read-out: Emax(%)
Give just the number in %; leave the unit off.

Consider the worked cases shown below.
1. Cc1cn(C)nc1COc1cc2c(cc1C(F)(F)F)CCN(Cc1nc3ccc(C(=O)O)cc3n1C[C@@H]1CCO1)C2 [Compound I-147] : 88
2. C[C@H]1c2cc(OCc3ccc(Cl)cc3F)c(C(F)(F)F)cc2CCN1Cc1nc2ccc(C(=O)O)c(F)c2n1C[C@@H]1CCO1 [Compound I-117] : 117

Consider the record given below.
Looking for the measured Emax of Cc1csc(COc2cc3c(cc2C(F)(F)F)CCN(Cc2nc4ccc(C(=O)O)c(F)c4n2C[C@@H]2CCO2)[C@H]3C)n1 [Compound I-192] , can you help?
123

###

# Measured target: Human GLP-1 receptor (Homo sapiens)
# Construct: expressed in transfected cells
# Method description: Measurement of GLP-1 receptor agonist activity (cAMP assay)
# Format: cell-based
# Test settings: CHO-K1, hGLP-1R/CHO-K1 cells, cAMP; 100% = human GLP-1 (7-36) at 2 nM, 0% = DMSO only; read-out: Emax(%)
Measured Emax by item
Kindly answer with a numeric value in %, unit omitted.

Observe how each entry below is paired with its result.
1) CCC1c2cc(OCc3ccc(Cl)cc3F)c(C(F)(F)F)cc2CCN1Cc1nc2ccc(C(=O)O)cc2n1C[C@@H]1CCO1 (mixture of isomers) : 103
2) O=C(O)c1ccc2nc(CN3CCc4cc(C(F)(F)F)c(OCc5ccc(OC(F)F)cc5F)cc4C3)n(C[C@@H]3CCO3)c2c1 : 105
3) N#Cc1cc(Cl)ccc1COc1cc2c(cc1C(F)(F)F)CCN(Cc1nc3ccc(C(=O)O)cc3n1C[C@@H]1CCO1)C2 : 109
4) C[C@H]1c2cc(OCc3ccc(OC(F)F)cc3F)c(C(F)(F)F)cc2CCN1Cc1nc2ccc(C(=O)O)c(F)c2n1C[C@@H]1CCO1 : 128
5) Cc1cc(Cl)ccc1COc1cc2c(cc1C(F)(F)F)CCN(Cc1nc3ccc(C(=O)O)cc3n1C[C@@H]1CCO1)C2 : 96
6) C[C@H]1c2cc(OCc3ccc(Cl)cc3Cl)c(C(F)(F)F)cc2CCN1Cc1nc2ccc(C(=O)O)nc2n1C[C@@H]1CCO1 : 113
7) O=C(O)c1ccc2nc(CN3CCc4cc(Br)c(OCc5ccc(Cl)cc5F)cc4C3)n(C[C@@H]3CCO3)c2c1 : 75.7
8) O=C(O)c1cc(OC(F)F)c2nc(CN3CCc4cc(C(F)(F)F)c(OCc5ccc(Cl)cc5F)cc4C3)n(C[C@@H]3CCO3)c2c1 : 103
9) C[C@H]1c2cc(OCc3ccc(F)cc3)c(C(F)(F)F)cc2CCN1Cc1nc2ccc(C(=O)O)nc2n1C[C@@H]1CCO1 : 105
10) Cn1ccc(COc2cc3c(cc2C(F)(F)F)CCN(Cc2nc4ccc(C(=O)O)cc4n2C[C@@H]2CCO2)C3)n1 : 116

GET /values?readout=Emax&system=Human GLP-1 receptor (Homo sapiens)&item= O=C(O)c1ccc2nc(CN3CCc4cc(C(F)(F)F)c(OCc5ccc(OC(F)F)cc5)cc4C3)n(C[C@@H]3CCO3)c2c1
103

Can you check O=C(O)c1ccc2nc(CN3CCc4cc(C(F)(F)F)c(OCc5ccc(Cl)cc5F)cc4C3=O)n(C[C@@H]3CCO3)c2c1 next?
92.3

// repeat for COc1cc(Cl)ccc1COc1cc2c(cc1C(F)(F)F)CCN(Cc1nc3ccc(C(=O)O)c(F)c3n1C[C@@H]1CCO1)[C@H]2C and report
106

# iterate: O=C(O)c1ccc2nc(CN3CCc4cc(C(F)(F)F)c(OCc5ccc(F)cc5F)cc4C3)n(C[C@@H]3CCO3)c2c1
101

Try this molecule next: O=C(O)c1ccc2nc(CN3CCc4cc(C(F)(F)F)c(OCc5ccc(Cl)cc5F)cc4C3)n(CC3(C(F)F)CC3)c2c1
130
